target.desc: Recombinant yeast Hsp90 (Saccharomyces cerevisiae)
Construct: made in house
Sequence (P02829 whole entry): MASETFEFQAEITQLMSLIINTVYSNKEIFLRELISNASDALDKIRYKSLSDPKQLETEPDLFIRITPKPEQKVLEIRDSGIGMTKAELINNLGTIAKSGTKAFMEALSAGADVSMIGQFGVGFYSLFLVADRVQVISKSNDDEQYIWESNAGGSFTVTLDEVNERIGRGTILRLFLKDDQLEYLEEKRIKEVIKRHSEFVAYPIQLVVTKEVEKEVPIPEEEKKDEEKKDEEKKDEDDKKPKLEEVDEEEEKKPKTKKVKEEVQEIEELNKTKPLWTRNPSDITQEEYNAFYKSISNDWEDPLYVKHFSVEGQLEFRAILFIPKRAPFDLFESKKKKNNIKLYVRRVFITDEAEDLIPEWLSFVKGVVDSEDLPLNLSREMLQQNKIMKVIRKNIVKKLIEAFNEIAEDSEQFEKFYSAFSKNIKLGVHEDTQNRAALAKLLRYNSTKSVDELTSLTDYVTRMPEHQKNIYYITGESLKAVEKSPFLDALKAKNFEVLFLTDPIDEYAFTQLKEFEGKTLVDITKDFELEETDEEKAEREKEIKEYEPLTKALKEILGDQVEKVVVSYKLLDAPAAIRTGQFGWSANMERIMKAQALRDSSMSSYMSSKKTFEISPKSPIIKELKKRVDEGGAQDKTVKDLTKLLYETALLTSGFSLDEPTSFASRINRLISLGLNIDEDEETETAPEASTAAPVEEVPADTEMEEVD
assay.comment: Inhibition of Hsp90 ATPase activity, production of inorganic phosphate
Type: biochemical
condition.set: IC50 (μm), incubated with ATP, table
measurement.kind: pIC50
// pIC50: -log10(molar conc.)

Returns the measured pIC50 for the input molecule. Input: COC(=O)c1c(O)cc(O)c(Cl)c1CCC(=O)NC1=CC(=O)C(OC)=CC1=O [Quinone]
5.23
